target or system: human MGL from HeLa cells (Homo sapiens, UniProt Q99685)
Construct: combining endogenously expressed MGL from HeLa cells with test compounds; endogenous in cells; host or cells: HeLa cells / cell homogenates
Sequence (Q99685 1-303): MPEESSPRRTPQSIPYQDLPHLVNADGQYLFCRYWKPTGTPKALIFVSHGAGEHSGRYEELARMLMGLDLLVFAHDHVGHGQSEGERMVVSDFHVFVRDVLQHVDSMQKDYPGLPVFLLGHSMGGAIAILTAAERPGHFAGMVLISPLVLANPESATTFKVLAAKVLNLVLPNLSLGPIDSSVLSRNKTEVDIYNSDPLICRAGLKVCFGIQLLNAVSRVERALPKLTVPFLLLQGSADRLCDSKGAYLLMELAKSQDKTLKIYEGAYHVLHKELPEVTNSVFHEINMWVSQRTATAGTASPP
protocol details: In vitro MGL activity assay: [glycerol-1,3-3H]-oleyl glycerol cleavage by MGL from HeLa cells
Type: biochemical
condition parameters: 300 nM [Glycerol-1,3-3H]-oleyl glycerol, one hour incubation
measure: IC50
# output: numeric value plus its unit

The following molecules have reported results that may help.
{"molecule": "Cn1nc2c(c1-c1ccccc1)CCN(C(=O)c1nccc3ccccc13)C2", "IC50": "47.3 nM"}
{"molecule": "COc1ccc(C)c(C(=O)N2CCc3c(nn(C)c3-c3cc(F)c(F)c(F)c3)[C@@H]2C)n1", "IC50": "312 nM"}
{"molecule": "CC1c2nn(C)c(-c3cc(F)cc(Cl)c3)c2CCN1C(=O)c1ccc2nccnc2c1 (stereo not shown)", "IC50": "31.3 nM"}

What IC50 value was documented for this molecule, COc1cc(Cl)cc(C(=O)N2CCc3c(nn(C)c3-c3cc(F)c(F)c(F)c3)[C@@H]2C)c1 ? 6.78 nM
